- System: Vibrio cholerae
- test_protocol: growth AUC normalised to DMSO control (fraction of control); higher = less growth inhibition, active = hit call of the paper
- condition_parameters: 20 µM
Where a name gives a salt, the structure may show the parent alone.
Answer with one of the outcomes t for active, f for inactive

Check the results log: what was the call for CNCC(O)c1ccc(O)cc1 (stereo not drawn) [Synephrine] ?
f

Check the results log: what was the call for CC(C)[N+](C)(CCC(C(N)=O)(c1ccccc1)c1ccccc1)C(C)C [Isopropamide iodide] ?
f

Check the results log: what was the call for C[C@@H]1C[C@@H]([C@H](O)CC2CC(=O)NC(=O)C2)C(=O)[C@@H](C)C1 [Cycloheximide] ?
f

Check the results log: what was the call for C[N+]12CCC(CC1)C(OC(=O)C(O)(c1ccccc1)c1ccccc1)C2 (stereo not drawn) [Clidinium bromide] ?
f

Check the results log: what was the call for CN(C)[C@@H]1C(=O)C(C(N)=O)=C(O)[C@@]2(O)C(=O)C3=C(O)c4c(O)cccc4[C@@](C)(O)[C@H]3C[C@@H]12 [Tetracycline hydrochloride] ?
t

Check the results log: what was the call for C[N+]1(C)CCCC(OC(=O)C(O)(c2ccccc2)c2ccccc2)C1 (stereo not drawn) [Mepenzolate bromide] ?
f

Check the results log: what was the call for C[C@@H]1CC[C@H]2[C@@H](C)C(=O)O[C@@H]3O[C@@]4(C)CC[C@@H]1[C@]32OO4 [Artemisinin] ?
f

Check the results log: what was the call for CC(C)(C)NCC(O)c1ccccc1Cl (stereo not drawn) [Tulobuterol hydrochloride] ?
f

Check the results log: what was the call for CC(CCc1ccccc1)NC(C)C(O)c1ccc(O)cc1 (stereo not drawn) [Nylidrin] ?
f

Check the results log: what was the call for CCC1(CC)C(=O)C=CNC1=O [Pyrithyldione] ?
f

Check the results log: what was the call for CN(C)C(=O)Oc1cccc([N+](C)(C)C)c1 [Neostigmine bromide] ?
f

Check the results log: what was the call for N[C@@H]1C[C@H]1c1ccccc1 [Tranylcypromine hydrochloride] ?
f

Check the results log: what was the call for OC(c1ccccc1)(c1ccccc1)C1CCNCC1 [Azacyclonol] ?
f

Check the results log: what was the call for COc1cc2c(c(OC)c1OC)-c1ccc(OC)c(=O)cc1[C@@H](NC(C)=O)CC2 [Colchicine] ?
f

Check the results log: what was the call for CCC1(c2cccc(O)c2)CCCCN(C)C1 (stereo not drawn) [Meptazinol hydrochloride] ?
f

Check the results log: what was the call for O=C(CCCN1CCC2(CC1)C(=O)NCN2c1ccccc1)c1ccc(F)cc1 [Spiperone] ?
f

Check the results log: what was the call for CCN(C)C(=O)Oc1cccc([C@H](C)N(C)C)c1 [Rivastigmine] ?
f

Check the results log: what was the call for CC(C)(N)Cc1ccccc1 [Phentermine hydrochloride] ?
f

====

- System: P. vulgatus WT;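 note: active when median AUC fell below 0.1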
- test_protocol: growth AUC normalised to DMSO control (median) (fraction of control); higher = less growth inhibition, active = hit call of the paper
- condition_parameters: 20 µM
Where a name gives a salt, the structure may show the parent alone.
Answer each item with its documented growth AUC normalised to DMSO control.

Sample CC(=O)O[C@H]1CC[C@@]2(C)C(=CC[C@@H]3[C@@H]2CC[C@]2(C)C(=O)CC[C@@H]32)C1 [Dehydroisoandosterone 3-acetate] ; growth AUC normalised to DMSO control observed: 0.952 (inactive)

Sample C=C1CC[C@@]2(O)[C@H]3Cc4ccc(O)c5c4[C@@]2(CCN3CC2CC2)[C@H]1O5 [Nalmefene hydrochloride] ; growth AUC normalised to DMSO control observed: 1.03 (inactive)

Sample CN1C(=O)COc2c(C(=O)NC3CN4CCC3CC4)cc(Cl)cc21 (centres undefined) [Azasetron hydrochloride] ; growth AUC normalised to DMSO control observed: 1.04 (inactive)

Sample `C[C@]12C=CC(=O)C=C1CC[C@@H]1[C@@H]2CC[C@@]2(C)[C@H]1CC[C@]2(C)O` ; growth AUC normalised to DMSO control observed: 0.998 (inactive)
